# Test system: OVCAR-4 ovarian
# protocol_notes: NCI-60 one-dose screen, 48 h
# assay_setup: 10 µM unless noted
The panel holds about 83,000 compounds, 20% with a hit somewhere; the sample as a whole holds those more often. Active and inactive are the calls of the source. Rule for the calls: active = growth percent below 10; inactive = the rest.
Labels: Yes for active, No for inactive

[
  {
    "molecule": "CC1=C([Se]CC(OC(=O)CC[Se]c2ccccc2)C(=O)NCCCCCC(=O)OCc2ccccc2)C(=O)c2ccccc2C1=O (stereo not drawn)",
    "subject_of_test": "OVCAR-4 ovarian",
    "assigned_class": "No"
  },
  {
    "molecule": "Cc1ccc(/C=C2\\C(=O)N(C)c3ccc(S(=O)(=O)Nc4ccc(C(C)(C)C)cc4)cc32)s1",
    "subject_of_test": "OVCAR-4 ovarian",
    "assigned_class": "Yes"
  },
  {
    "molecule": "COc1cc(/C=N/NC(=O)Cn2c(C(C)C)nc3ccccc32)ccc1O",
    "subject_of_test": "OVCAR-4 ovarian",
    "assigned_class": "No"
  },
  {
    "molecule": "COc1ccc(-c2nc3c(c(=O)n2C(C)=O)C(c2ccc(Cl)cc2)c2sc4c(Cl)cccc4c2O3)cc1 (stereo not drawn)",
    "subject_of_test": "OVCAR-4 ovarian",
    "assigned_class": "No"
  },
  {
    "molecule": "COc1ccc(CNC(=O)C(O)C(Cc2ccccc2)NC(=O)c2[nH]c3ccccc3c(=O)c2C)cc1OC (stereo not drawn)",
    "subject_of_test": "OVCAR-4 ovarian",
    "assigned_class": "No"
  },
  {
    "molecule": "O=[N+]([O-])c1ccc(C2CC(c3ccccc3)=Nc3ccccc3S2)cc1 (stereo not drawn)",
    "subject_of_test": "OVCAR-4 ovarian",
    "assigned_class": "No"
  },
  {
    "molecule": "O=C1Nc2ccccc2/C1=C/c1cn(C(=O)c2ccc(Cl)cc2)c2ccccc12",
    "subject_of_test": "OVCAR-4 ovarian",
    "assigned_class": "No"
  },
  {
    "molecule": "CCc1ccccc1-n1c(-c2ccc(Cl)cc2)cc(-c2ccc(Cl)cc2)c(C#N)c1=O",
    "subject_of_test": "OVCAR-4 ovarian",
    "assigned_class": "No"
  },
  {
    "molecule": "O=S(=O)(NCCCNc1cc(-c2c(-c3cccc(O)c3)nc3sccn23)ccn1)c1cccc(Cl)c1",
    "subject_of_test": "OVCAR-4 ovarian",
    "assigned_class": "No"
  },
  {
    "molecule": "S=C(Cc1ccc2c(c1)CCCC2)N1CCOCC1",
    "subject_of_test": "OVCAR-4 ovarian",
    "assigned_class": "No"
  },
  {
    "molecule": "CCCCCCCCn1ccc2cc(NC(=O)Cn3cc(CN4CCCC4)nn3)ccc21",
    "subject_of_test": "OVCAR-4 ovarian",
    "assigned_class": "No"
  },
  {
    "molecule": "CN(C)CC1C(=O)O[C@H]2[C@H]1CC/C(COC(=O)c1cc3ccccc3[nH]1)=C\\CC[C@@]1(C)O[C@@H]21 (stereo partly drawn)",
    "subject_of_test": "OVCAR-4 ovarian",
    "assigned_class": "Yes"
  },
  {
    "molecule": "O=C1/C(=C2/C=Nc3ccccc32)N(O)c2ccccc21",
    "subject_of_test": "OVCAR-4 ovarian",
    "assigned_class": "No"
  },
  {
    "molecule": "Cc1ccc(/C=C/c2c(C(=O)/C=C/c3ccc(Cl)cc3)c(C)nc3ccccc23)cc1",
    "subject_of_test": "OVCAR-4 ovarian",
    "assigned_class": "Yes"
  },
  {
    "molecule": "Nc1n[nH]c2cc(F)c([C@@H]3Nc4c(F)cc5[nH]ncc5c4[C@H]4C5CCC(C5)[C@@H]34)cc12 (stereo partly drawn)",
    "subject_of_test": "OVCAR-4 ovarian",
    "assigned_class": "No"
  },
  {
    "molecule": "COC(=O)[C@]12CC[C@@H](C)[C@H](C)[C@@H]1C1=CC[C@@H]3[C@@]4(C)C(C=O)=C[C@@](C)(COS(C)(=O)=O)C4[C@H](O)C[C@@]3(C)[C@]1(C)CC2 (stereo partly drawn)",
    "subject_of_test": "OVCAR-4 ovarian",
    "assigned_class": "Yes"
  },
  {
    "molecule": "Cc1nc2ccccc2c(/C=C/c2ccc(Cl)cc2)c1C(=O)/C=C/c1ccc(F)cc1",
    "subject_of_test": "OVCAR-4 ovarian",
    "assigned_class": "No"
  },
  {
    "molecule": "Cc1cc(NCc2cc(Nc3ccnc4cc(Cl)ccc34)ccc2F)nc(N2CCSCC2)n1",
    "subject_of_test": "OVCAR-4 ovarian",
    "assigned_class": "No"
  }
]
